Biological target: PIM1 transgenic cells (Ba/F3) (Homo sapiens, UniProt P11309)
Sequence (P11309 whole entry, change not shown): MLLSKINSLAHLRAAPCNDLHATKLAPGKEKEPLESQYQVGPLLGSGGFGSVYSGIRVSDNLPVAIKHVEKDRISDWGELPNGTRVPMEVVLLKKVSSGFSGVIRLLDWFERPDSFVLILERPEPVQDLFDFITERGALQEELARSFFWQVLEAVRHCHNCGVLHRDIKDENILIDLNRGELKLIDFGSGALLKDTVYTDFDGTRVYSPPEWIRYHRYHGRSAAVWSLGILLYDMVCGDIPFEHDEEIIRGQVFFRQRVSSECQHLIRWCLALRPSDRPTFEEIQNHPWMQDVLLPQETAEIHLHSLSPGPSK
Test: Proliferation inhibitory effect on PIM1 transgenic cells
Assay type: cell-based, mouse
Details: proliferation inhibition, 72 hours, Cell Counting Kit-8, read-out: PIM1 IC50
Counter-ions that a name gives are not always drawn.
readout: GI50 (nM)
Answers are plain numbers, in nM.

- compound: "N[C@H]1CCCN(CCNc2cc(-c3n[nH]c(=O)o3)ccc2C(F)(F)F)C1 [Example 73, dihydrochloride]"
  unit-string: "nM"
  GI50: 570
- compound: "C[C@H](Nc1cc(-c2n[nH]c(=O)o2)cc(F)c1Br)C1CCNCC1 [Example 83, hydrochloride]"
  unit-string: "nM"
  GI50: 75
- compound: "C[C@H](Nc1cc(-c2n[nH]c(=O)o2)ccc1Cl)C1CCNCC1 [Example 77, dihydrochloride]"
  unit-string: "nM"
  GI50: 180
- compound: "C[C@H](Nc1c(F)c(-c2n[nH]c(=O)o2)cc(F)c1Cl)C1CCNCC1 [Example 88, hydrochloride]"
  unit-string: "nM"
  GI50: 110
- compound: "N[C@H]1CC[C@H](CCc2cc(-c3n[nH]c(=O)o3)ccc2C(F)(F)F)CC1 [Example 27, hydrochloride]"
  unit-string: "nM"
  GI50: 200
- compound: "O=c1[nH]nc(-c2cc(NCC3(F)CCNCC3)c3cn[nH]c3c2)o1 [Example 116, hydrochloride]"
  unit-string: "nM"
  GI50: 4200
- compound: "CN[C@H]1CC[C@H](CN(C)c2cc(-c3n[nH]c(=O)o3)ccc2C(F)(F)F)CC1 [Example 132, hydrochloride]"
  unit-string: "nM"
  GI50: 440
- compound: "NCCCCCNc1cc(-c2n[nH]c(=O)o2)ccc1C(F)(F)F [Example 3, hydrochloride]"
  unit-string: "nM"
  GI50: 7900
- compound: "C[C@H](Nc1cc(-c2n[nH]c(=O)o2)cc(Cl)c1Cl)[C@H]1CC[C@H](N)CC1 [Example 174, hydrochloride]"
  unit-string: "nM"
  GI50: 18
- compound: "N[C@H]1CC[C@@H](Nc2cc(-c3n[nH]c(=O)o3)ccc2Cl)CC1 [Example 33, hydrochloride]"
  unit-string: "nM"
  GI50: 730

For every item below, please supply its GI50.
1. O=c1[nH]nc(-c2ccc(C(F)(F)F)c(N3CCC4(CC3)CNC4)c2)o1 [Example 16, hydrochloride]
2. O=c1[nH]nc(-c2ccc(C(F)(F)F)c(NCC3CCNCC3)c2)o1 [Example 48, hydrochloride]
3. C[C@H](Nc1cc(-c2n[nH]c(=O)o2)ccc1C(F)(F)F)[C@@H]1[C@@H]2CC[C@H]1CNC2 [Example 155, hydrochloride]

Result:
2400
1200
92

Could you report GI50 for every entry in the following list?
1. O=c1[nH]nc(-c2ccc(C(F)(F)F)c(N[C@@H](CF)C3(F)CCNCC3)c2)o1 [Example 209]
2. C[C@H](Nc1cc(-c2n[nH]c(=O)o2)cc(F)c1C(F)(F)F)[C@@H]1C[C@H](N)C1(C)C [Example 150, hydrochloride]

Result:
100
9.2

These data points were gathered from patent US20220024921A1.
